Target: COVID-19 virus M^pro (Severe acute respiratory syndrome coronavirus 2, UniProt P0DTD1)
pIC50: −log10 of the molar value.
parameter-measured: pIC50

[[record]]
smiles_text = "CN(C)CCCSc1ccccc1NC(=O)/C=C/c1ccccc1"
recorded_value = 3.90


The values you see were collected from paper doi:10.1101/2020.02.26.964882v3.
